Could you please report measured residual activity for the items listed next?
Biological target: FES (human) (UniProt P07332)
Sequence (P07332 whole entry, looked up): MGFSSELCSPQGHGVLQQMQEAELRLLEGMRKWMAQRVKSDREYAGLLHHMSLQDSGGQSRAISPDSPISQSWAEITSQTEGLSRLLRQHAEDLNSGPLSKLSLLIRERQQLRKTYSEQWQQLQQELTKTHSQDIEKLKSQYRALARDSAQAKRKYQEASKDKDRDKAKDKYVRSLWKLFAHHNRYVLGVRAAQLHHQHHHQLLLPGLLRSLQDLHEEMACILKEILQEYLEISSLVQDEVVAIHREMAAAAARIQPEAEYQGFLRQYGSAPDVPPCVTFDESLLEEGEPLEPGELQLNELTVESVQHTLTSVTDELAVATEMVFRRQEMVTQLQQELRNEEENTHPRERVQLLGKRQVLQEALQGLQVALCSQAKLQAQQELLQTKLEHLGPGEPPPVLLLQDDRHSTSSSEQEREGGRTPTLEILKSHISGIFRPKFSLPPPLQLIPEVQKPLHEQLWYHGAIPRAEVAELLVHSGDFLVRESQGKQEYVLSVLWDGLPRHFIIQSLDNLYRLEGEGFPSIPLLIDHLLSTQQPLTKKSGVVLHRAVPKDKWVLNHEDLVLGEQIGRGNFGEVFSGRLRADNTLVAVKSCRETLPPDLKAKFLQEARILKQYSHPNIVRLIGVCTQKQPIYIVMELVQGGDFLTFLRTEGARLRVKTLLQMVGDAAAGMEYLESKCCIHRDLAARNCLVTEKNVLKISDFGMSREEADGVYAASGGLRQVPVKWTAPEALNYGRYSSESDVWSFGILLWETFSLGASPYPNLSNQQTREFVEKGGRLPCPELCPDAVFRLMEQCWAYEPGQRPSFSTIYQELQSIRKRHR
Experiment: radiometric filter-binding kinase assay, Kinase HotSpot
Settings: compound 0.5 µM; ATP 10 µM
Respond numerically; units are % and should not be typed.

## Task Which measured residual activity value corresponds to "NC(=O)c1ccc(N(C(N)=O)c2c(F)cccc2F)nc1-c1ccc(F)cc1F" ?
## Result 99

## Task Recorded residual activity for "CC(C)[C@H](CO)Nc1nc(Nc2cccc(Cl)c2)c2ncn(C(C)C)c2n1" , please?
## Result 95.9

## Task Item "O=C1Nc2cc(Br)ccc2/C1=C1/Nc2ccccc2/C1=N\O" has what recorded residual activity?
## Result 96

## Task Fill in the blank: the reported residual activity of "Clc1ccc(Nc2nnc(Cc3ccncc3)c3ccccc23)cc1" is ____.
## Result 94.7

## Task # input molecule: "C#Cc1cccc(Nc2ncnc3cc(OCCOC)c(OCCOC)cc23)c1" ; wanted: its residual activity
## Result 105

## Task May I ask what residual activity has been recorded for CS(=O)c1ccc(-c2nc(-c3ccc(F)cc3)c(-c3ccncc3)[nH]2)cc1 (centres undefined) ?
## Result 97.3

## Task Look at this molecule and give its reported residual activity. "CCN1/C(=C/C(C)=O)Sc2ccc(OC)cc21"
## Result 101

## Task residual activity lookup needed for "Nc1n[nH]c2nnc(-c3c(-c4ccccc4)nn4ccccc34)cc12" , thanks.
## Result 97.8

## Task Requested field: residual activity. Item: "COc1cc2nccc(Oc3ccc(NC(=S)NC(=O)c4ccccc4C)cc3)c2cc1OC"
## Result 96.7

## Task Which residual activity is listed for "CC(C)n1cnc2c(Nc3cccc(Cl)c3)nc(NCCO)nc21" ?
## Result 66.2

## Task For the molecule shown here, "O=C1Cc2c([nH]c3ccc([N+](=O)[O-])cc23)-c2ccccc2N1" , give the reported residual activity.
## Result 46.3

## Task residual activity lookup needed for "O=C(Nc1ccc(Cl)cc1)c1ccccc1NCc1ccncc1" , thanks.
## Result 96.6

## Task Item "Cc1ccc(NC(=O)c2ccc(CN3CCN(C)CC3)cc2)cc1Nc1nc(-c2cccnc2)cs1" has what recorded residual activity?
## Result 105

## Task Please report the recorded residual activity for "O=c1cc(-c2cccc3c2Sc2ccccc2S3)oc(N2CCOCC2)c1" .
## Result 104

## Task Could you share which residual activity value was measured for O=C(NC(NC(=S)Nc1ccc(F)c([N+](=O)[O-])c1)C(Cl)(Cl)Cl)C(c1ccccc1)c1ccccc1 (centres undefined) ?
## Result 104

## Task Which residual activity is listed for "Oc1ccc(-c2nc(-c3ccc(F)cc3)c(-c3ccncc3)[nH]2)cc1" ?
## Result 101

## Task Which residual activity reading was recorded for the molecule "Cc1cc2ncc(-c3ccccc3)nc2cc1C" ?
## Result 97.3

## Task Quick check: residual activity of "CC(C)(C)c1nc2c3ccc(F)cc3c3c(=O)[nH]ccc3c2[nH]1" ?
## Result 78

## Task Reported residual activity, molecule "O=c1cc(N2CCNCC2)oc2c(-c3ccccc3)cccc12" : ____
## Result 95.4

## Task Find the recorded residual activity belonging to "COc1ccc(-c2cnc3c(-c4ccsc4)cnn3c2)cc1" and report it.
## Result 98.2

## Task # residual activity lookup, item "Nc1nc(Nc2ccc(S(N)(=O)=O)cc2)nn1C(=S)Nc1c(F)cccc1F"
## Result 10.2

## Task Tell me the measured residual activity of "CCCNC(=O)Nc1ccc(Oc2ncnc3cc(OC)c(OC)cc23)cc1Cl" , please.
## Result 96

## Task Record request: residual activity value, item CSc1nc(-c2ccc(F)cc2)c(-c2ccnc(NC(C)c3ccccc3)c2)[nH]1 (centres undefined)
## Result 93.8

## Task State the recorded residual activity for this entry: "O=C1Nc2ccccc2/C1=C\c1c(Cl)[nH]c2ccccc12"
## Result 96.6

Data credit: the kinase profiling compilation of Christmann-Franck et al. (2016)
